- assay_procedure: Stability towards demetallation at different pH and phosphate buffer ionic strengths (UV-VIS)
- Type: physicochemical
- experimental_parameters: pH 5, 0.1M phosphate buffer, 25° C.
- Procedure: In yet another embodiment, the stability of (IA) towards demetallation at different pH and ionic strengths is tested to evaluate the operational stability of the complex of instant invention for possible catalytic reactions in water. […] The stability of this complex is also monitored at different ionic strengths at pH 7. […] The phosphate buffer induced demetallation for similar Fe-TAML's have been studied in details. […]
measure_name: half-life

>>> recorded_value("CN1C(=O)[N]2C(C)(C)C(=O)[N]3c4ccccc4[N]4C(=O)C(C)(C)[N](C1=O)[Fe]342[Cl]")
"~18 h"
